For each entry below, report its pKd value.
Target: T1, RecQ4 (Homo sapiens, UniProt O94761 1-1208)
T1 sequence: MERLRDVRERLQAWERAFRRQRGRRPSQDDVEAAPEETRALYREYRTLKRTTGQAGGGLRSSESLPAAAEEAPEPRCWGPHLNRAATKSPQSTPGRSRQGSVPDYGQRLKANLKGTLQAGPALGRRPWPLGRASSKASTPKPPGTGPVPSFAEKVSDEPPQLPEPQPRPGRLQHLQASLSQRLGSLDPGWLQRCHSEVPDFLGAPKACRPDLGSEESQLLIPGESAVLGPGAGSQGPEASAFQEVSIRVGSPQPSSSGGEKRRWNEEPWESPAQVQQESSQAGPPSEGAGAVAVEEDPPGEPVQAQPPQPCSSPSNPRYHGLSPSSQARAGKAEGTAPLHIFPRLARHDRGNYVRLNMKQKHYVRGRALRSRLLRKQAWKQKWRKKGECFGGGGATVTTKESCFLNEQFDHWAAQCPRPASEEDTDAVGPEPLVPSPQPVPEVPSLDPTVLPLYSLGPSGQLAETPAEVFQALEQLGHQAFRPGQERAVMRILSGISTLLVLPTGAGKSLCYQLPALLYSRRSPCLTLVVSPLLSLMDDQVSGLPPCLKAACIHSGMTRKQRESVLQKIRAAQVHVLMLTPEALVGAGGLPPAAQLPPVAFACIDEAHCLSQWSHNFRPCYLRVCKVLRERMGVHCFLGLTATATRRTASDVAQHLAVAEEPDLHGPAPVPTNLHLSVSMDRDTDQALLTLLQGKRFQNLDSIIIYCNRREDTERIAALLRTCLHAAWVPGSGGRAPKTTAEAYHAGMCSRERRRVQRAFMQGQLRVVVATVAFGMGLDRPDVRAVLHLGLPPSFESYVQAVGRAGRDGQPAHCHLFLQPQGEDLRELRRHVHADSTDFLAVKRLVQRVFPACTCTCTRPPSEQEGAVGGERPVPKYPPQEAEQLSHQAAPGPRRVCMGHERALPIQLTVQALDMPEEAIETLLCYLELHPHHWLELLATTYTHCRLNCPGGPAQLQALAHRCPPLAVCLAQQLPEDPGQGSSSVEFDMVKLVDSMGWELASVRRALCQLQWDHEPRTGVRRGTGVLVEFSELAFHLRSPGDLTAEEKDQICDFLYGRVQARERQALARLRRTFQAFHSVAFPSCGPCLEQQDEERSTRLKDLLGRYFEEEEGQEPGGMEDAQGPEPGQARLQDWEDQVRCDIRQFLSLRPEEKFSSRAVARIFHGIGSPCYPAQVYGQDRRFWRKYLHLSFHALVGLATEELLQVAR
Assay: EMSA
In textbook form, pKd equals minus log to base ten of the concentration in mol/L.

Given item Bubble (dsDNA) DNA 1: GGTGAACCTGCAGGTGGGCGGCTGCTCATCGTAGGTTAGTTGGTAGAATTCGGCAGCGTC DNA 2: GACGCTGCCGAATTCTAGGTTGATTGGATGCTACTCGTCGGCGCCACCTGCAGGTTCACC , the value recorded as its pKd is 7.77

Given item D-loop (structured_DNA) DNA 1: GGGTGAACCTGCAGGTGGGCGGCTGCTCATCGTAGGTTAGTGGTAGAATTCGGCAGCGTC DNA 2: GACGCTGCCGAATTCTACCATGCCTTGCTAGGACATCTTTGCCCACCTGCAGGTTCACCC DNA 3: TAAGAGCAAGATGTTCTATAAAAGATGTCCTAGCAAGGCA , the value recorded as its pKd is 7.90

Data provenance is paper PMC5605238.
